Data provenance is ChEMBL document CHEMBL3988442.

Percent Effect overview
Target: Tyrosyl-tRNA synthetase, putative (Trypanosoma cruzi (strain CL Brener)) (UniProt Q4DSP6)
Sequence (whole entry): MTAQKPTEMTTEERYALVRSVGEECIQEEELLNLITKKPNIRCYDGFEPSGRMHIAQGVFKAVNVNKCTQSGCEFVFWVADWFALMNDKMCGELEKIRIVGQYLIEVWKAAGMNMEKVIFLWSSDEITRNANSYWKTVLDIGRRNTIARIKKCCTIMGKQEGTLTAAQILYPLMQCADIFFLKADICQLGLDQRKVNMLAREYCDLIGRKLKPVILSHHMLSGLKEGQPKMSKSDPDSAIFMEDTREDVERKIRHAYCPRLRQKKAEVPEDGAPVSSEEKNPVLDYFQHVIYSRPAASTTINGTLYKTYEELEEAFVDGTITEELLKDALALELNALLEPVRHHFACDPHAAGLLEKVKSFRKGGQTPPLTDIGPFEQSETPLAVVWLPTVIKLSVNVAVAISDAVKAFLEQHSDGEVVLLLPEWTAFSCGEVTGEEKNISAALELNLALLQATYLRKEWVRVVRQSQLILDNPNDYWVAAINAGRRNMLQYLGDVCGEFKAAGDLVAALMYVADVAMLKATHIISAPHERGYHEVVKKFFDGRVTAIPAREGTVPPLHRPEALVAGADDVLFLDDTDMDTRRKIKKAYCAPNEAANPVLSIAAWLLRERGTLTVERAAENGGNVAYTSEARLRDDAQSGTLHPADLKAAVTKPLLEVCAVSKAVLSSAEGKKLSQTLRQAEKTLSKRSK
Assay: Trypanosoma cruzi tyrosyl tRNA synthetase (TcYRS) SOP
Format: functional
Parameters: scale not given: direction of the effect not stated beside the values
Conditions: 30 µM

compound: O=C(C1CC(=O)N(c2ccccc2Br)C1)N1CCC2(CC1)OCCO2 (configuration not stated)
Percent Effect [%]: 8.64
--
compound: CCc1noc(C(C)N2CCNCC2)n1 (configuration not stated)
Percent Effect [%]: 2.56
--
compound: Cc1nc(NCC2CC2)nc2c1COCC21CCN(C)C1 (configuration not stated)
Percent Effect [%]: 16.7
--
compound: O=C1[C@H]2CN(CC3CC3)C[C@H]2CN1c1ccsc1
Percent Effect [%]: 0
--
compound: O=C(Cc1cccs1)N1C[C@@H]2OCCN(CC3CCCC3)[C@@H]2C1
Percent Effect [%]: 6.17
--
compound: NC(=O)CN1CCCN(C(=O)Cc2ccc3ccccc3c2)CC1
Percent Effect [%]: -5.13
--
compound: NCC1[C@H]2CN(CCc3ccccc3)C[C@@H]12 (some centres not stated)
Percent Effect [%]: 0
--
compound: O=C(C1CCC1)N1CCC2(CC1)OCCO2
Percent Effect [%]: 5.2
--
compound: COCc1cncc2c1CCN(Cc1ccccn1)C2
Percent Effect [%]: 23.2
--
compound: COCCO[C@@H]1C[C@H]2CN(C(=O)c3ccc(C)nc3)CCN2C1
Percent Effect [%]: 15
--
compound: COCC(=O)N1C[C@@H]2OCCN(Cc3c(C)noc3C)[C@@H]2C1
Percent Effect [%]: 10.3
--
compound: c1cncc(CN2CC[C@H]3O[C@@H](COCC4CC4)CC[C@H]32)c1
Percent Effect [%]: 6.41
